TESTED_ON: T1, human CTLA-4-Fc (Chimerigen) (human, UniProt P16410 36-161; P01857 99-330 = IgG part, limits assumed)
T1 construct: extracellular domain;domain: Fc portion; Bought protein; also called hCTLA-4-Fc; huCTLA-4-Ig
EXPERIMENT_NOTES: SPR-Affinity of the PEGylated monomer towards hCTLA-4-Fc
pKd: −log10 of the molar value.
QUANTITY: pKd

>>> readout_value("S140.4-O10_E143C PEGylated with 12k PEG-maleimide (designed binder, 12k PEG-maleimide on Cys 143, also called O10_E143C PEGylated monomer) QDSTSDLIPAPPLSKVPLQQNFQDNQFHGKWYVVGLAGNRILRDDQHPMNMYATIYELKEDKSYNVTSVISSHKKCEYTIATFVPGSQPGEFTLGNIKSYGDKTSYLVRVVSTDYNQYAVVFFKLAEDNAEFFAITIYGRTKCLASELKENFIRFSKSLGLPENHIVFPVPIDQCIDG")
7.07
>>> readout_value("S140.4-O10 site-directed PEGylated at Cys 87 with 12k PEG (designed binder, chain 1 pos 87: Cys carrying linear 12k PEG-maleimide on its thiol, written C, also called O10_PEG(12k); O10_S87C PEGylated monomer) QDSTSDLIPAPPLSKVPLQQNFQDNQFHGKWYVVGLAGNRILRDDQHPMNMYATIYELKEDKSYNVTSVISSHKKCEYTIATFVPGCQPGEFTLGNIKSYGDKTSYLVRVVSTDYNQYAVVFFKLAEDNAEFFAITIYGRTKELASELKENFIRFSKSLGLPENHIVFPVPIDQCIDGSAWSHPQFEK")
7.59
>>> readout_value("S140.4-O10_T141C PEGylated with 12k PEG-maleimide (designed binder, 12k PEG-maleimide on Cys 141, also called O10_T141C PEGylated monomer) QDSTSDLIPAPPLSKVPLQQNFQDNQFHGKWYVVGLAGNRILRDDQHPMNMYATIYELKEDKSYNVTSVISSHKKCEYTIATFVPGSQPGEFTLGNIKSYGDKTSYLVRVVSTDYNQYAVVFFKLAEDNAEFFAITIYGRCKELASELKENFIRFSKSLGLPENHIVFPVPIDQCIDG")
7.16

The measurements presented in this section are drawn from patent US20090042785A1.
